assay: basal RPMI8226 mitochondrial membrane potential changes, profiling panel, cell-based, JC-1 fluorescence, 24 h, 100 nL compound (AID 1169); details: RPMI8226 myeloma, JC-1 mitochondrial potential fluorescence, higher = more signal; also: test concentration not given here
Exercise: state measured z-score for each of the compounds provided.
Numbers only.

A selection of reference data follows.
| COMPOUND | z-score |
| --- | --- |
| CO[C@H]1COC(=O)CC=C[C@H](C)[C@@H](NS(=O)(=O)c2ccc(C)cc2)COC(=O)CC=C[C@@H]1C | 0.0791 |
| CCOc1ccc(N2C(=O)/C(=C/C=C/c3ccccc3OC)S(=O)(=O)C2c2cccc([N+](=O)[O-])c2)cc1 (configuration not stated) | -0.732 |
| CCCNC(=O)OC[C@H]1O[C@H](CCON=C2[C@H]3CCn4c(=O)n(-c5ccccc5)c(=O)n4[C@H]3[C@H](O)[C@@H]3O[C@H]23)C=C[C@@H]1Oc1ccc(OC)cc1 | -0.7 |

Please report z-score for every entry that follows.
1. CN1C(=O)C2C=CC(C(O)c3ccc(Br)cc3)N(N(c3ccccc3)c3ccccc3)C2C1=O (configuration not stated)
2. [N-]=[N+]=NCc1ccccc1C[C@]1(C(=O)NCc2ccccc2)N=C(c2ccc(OCCCO)cc2)O[C@H]1c1ccccc1N=[N+]=[N-]
3. COC(=O)[C@H](C)NC(=O)[C@@H](C)CO
4. CCOC(=O)CCN1C(=O)[C@H]2[C@H]3[C@H](O)[C@H](O)CC(=NNC(=O)OCc4ccc(OC)cc4)[C@@H]3CC[C@H]2C1=O

[0.343, -1.17, -0.04, -0.91]

###

system: Human papillomavirus type 1a E7 protein (residues 1-88); assay: HPV1a E7 small-molecule binders, primary screen, biochemical, small-molecule microarray, residues 1-88, 635 nm (AID 1129); conditions: small-molecule microarray binding, fluorescence 635 nm; higher = more signal
EXPERIMENTAL_READOUT: composite z-score

A selection of reference data follows.
| COMPOUND | composite z-score |
| --- | --- |
| [N-]=[N+]=NCc1ccccc1[C@@H]1OC(c2ccc(OCCCO)cc2)=N[C@]1(Cc1ccccc1)C(=O)N1CCOCC1 | 1.11 |
| COc1cccc([C@H]2Oc3ccc(OC)cc3C(=NO[C@H](C)c3cn([C@@H]4COC[C@H]4O)nn3)[C@@H]2O)c1 | -0.949 |
| CC(C)C[C@@H]1NC(=O)[C@H]2C[C@@H](C(=O)NCCCCCCN(C)C)[C@@H](c3cccc(OCCO)c3)N2C1=O | 1.01 |

Please report composite z-score for every entry that follows.
1. CCCNC(=O)OC[C@H]1O[C@H](CCON=C2[C@H]3CCn4c(=O)n(-c5ccccc5)c(=O)n4[C@H]3[C@H](O)[C@@H]3O[C@H]23)C=C[C@@H]1Oc1ccc(OC)cc1
2. C=CCC(OC(C)=O)[C@@H]1[C@@H](N(Cc2cc3ccccc3o2)C(=O)Cc2ccc(F)cc2)c2cc(OCCCO)ccc2N1C(=O)Cc1ccc(OC)cc1 (some centres not stated)
3. CC(C)NC(=O)[C@@]1(c2ccc([N+](=O)[O-])cc2)CC(=O)N(CC23CC4CC(CC(C4)C2)C3)[C@@H]1c1ccc(CO)cc1I
4. C=CC[C@]1(C(=O)NCc2ccccc2)N=C(c2ccc(OCCCO)cc2)O[C@H]1c1ccccc1

1: 0.281; 2: -1.14; 3: 1.14; 4: 1.22

###

experiment: small-molecule microarray binders of probe aWnt5a, primary screen, biochemical, biotinylated probe, 635/667 nm fluorescence (AID 1113); conditions: higher = more signal;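 also: score merges 667 nm fluorescence intensity with signal-to-noise per printed feature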
Exercise: state measured composite z-score for each of the compounds provided.
Answers are plain numbers.

A selection of reference data follows.
| COMPOUND | composite z-score |
| --- | --- |
| CC(C)CON=C1C[C@@H](O)[C@@H](O)[C@@H]2[C@@H]3C(=O)N(Cc4ccccc4)C(=O)[C@@H]3CC[C@@H]12 | -0.0792 |
| CN(C)CCCNC(=O)[C@@H]1c2ccccc2C(=O)N(Cc2ccccc2)[C@H]1c1ccc(CO)cc1 | -0.0527 |
| C=CC[C@]1(C(=O)NCc2ccccc2)N=C(c2ccc(OCCCO)cc2)O[C@H]1c1ccccc1 | -0.0944 |
| CN(C)CCCNC(=O)[C@@H]1c2ccccc2C(=O)N(Cc2cc(F)cc(C(F)(F)F)c2)[C@H]1c1ccc(CO)cc1 | -0.103 |

Please report composite z-score for every entry that follows.
1. COC(=O)[C@H](C)NC(=O)CCC1CC(OC(=O)NCc2ccc3c(c2)OCO3)CC2(CCCC(COC(=O)NCCOc3ccccc3)O2)O1 (some centres undefined)
2. COC(=O)[C@H](C)NC(=O)CCC1CC(OC(=O)NCc2cccc3ccccc23)CC2(CCCC(COC(=O)NCC3CCCCC3)O2)O1 (some centres undefined)
3. COCCOC(=O)N1C(=O)[C@@]2(c3cc(C#Cc4ccc(OC)cc4)ccc31)[C@H](C(=O)N1CCN(c3ncccn3)CC1)[C@H]1C(=O)O[C@H](c3ccccc3)[C@H](c3ccccc3)N1[C@@H]2c1ccc(OCCO)cc1
4. COc1ccc(O[C@H]2C=C[C@@H](c3ccccc3)O[C@@H]2COC(=O)CCC(C)=NO[C@@H](C)c2cc(-c3c(C)cc(C)cc3C)no2)cc1
5. O=C1[C@H]2[C@H]3[C@H](O)[C@H](O)CC(=NOC[C@@H](O)COCc4ccco4)[C@@H]3CC[C@H]2C(=O)N1c1ccc(F)cc1F
6. CCN1C(=O)[C@H]2[C@H]3[C@H](O)[C@H](O)CC(=NOC[C@@H](C)[C@H](OCc4ccccc4)C(C)C)[C@@H]3CC[C@H]2C1=O

-0.129
-0.174
0.101
-0.194
-0.0792
-0.133

Please report composite z-score for every entry that follows.
1. CCOC(=O)[C@H](CC(C)C)NC(=O)CCC1CC(OC(=O)NCc2cccc3ccccc23)CC2(CCCC(COC(=O)NCCc3ccccc3OC)O2)O1 (some centres undefined)
2. CC(=O)O[C@H]1C2=C(C(=O)[C@@H]3O[C@@H]31)[C@H]1C(C)O[C@@H]2[C@@]23C(=O)[C@@H]4O[C@@H]4[C@@H](O)C2=CO[C@H](C)[C@@H]13 (some centres undefined)

-0.124
-0.101

Please report composite z-score for every entry that follows.
1. CC(C)c1ccc(NN2C(C(O)c3ccc4c(c3)OCO4)C=CC3C(=O)N(c4ccccc4)C(=O)C32)cc1 (centres undefined)
2. COc1ccc(O[C@H]2C=C[C@@H](c3ccccc3)O[C@@H]2CON=C[C@@H](C)[C@H](OCc2ccccc2)C(C)C)cc1

0.0775
-0.124

###

assay: COS7 lysate on small-molecule microarray, probe aHis, 635 nm (AID 1123); conditions: COS7 cell lysate, fluorescence, higher = more signal;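 also: z-score combines 667nm fluorescence intensity with signal-to-noise per printed compound spot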
Output true (1) for composite z-score not less than -0.05; output false (0) otherwise.

| COMPOUND | GROUP |
| --- | --- |
| O=C(NN=C1C[C@@H](O)[C@@H](O)[C@@H]2[C@@H]3C(=O)N(c4cccc(Oc5ccccc5)c4)C(=O)[C@@H]3CC[C@@H]12)OCc1ccccc1 | true (1) |
| C=C(/C(=C/C[C@@H](OC(=O)c1ccncc1)c1ccc(OCCO)cc1)c1cnc2ccccc2c1)C(C)C | false (0) |
| O=C1[C@H]2[C@H]3[C@H](O)[C@H](O)CC(=NOC[C@@H](O)COCc4ccco4)[C@H]3CC[C@H]2C(=O)N1c1cccc(Oc2ccccc2)c1 | false (0) |
| COc1ccc([Si](C)(C)[C@H]2[C@H](CC(=O)N3CCC[C@H]3CO)O[C@@]3(C(=O)N(Cc4cccc(N5C(=O)COc6ccccc65)c4)c4ccccc43)[C@@H]2C)cc1 | true (1) |
| C[C@H](c1ccccc1)N1C(=O)[C@H]2[C@H]3[C@H](O)[C@H](O)CC(=O)[C@@H]3CC[C@H]2C1=O | true (1) |

Given CCCCCN1CC=CC23O[C@@H]4C=CCOC(=O)[C@@H]4[C@H]2C(=O)N(C(CO)C(C)C)[C@@H]3C1=O (stereo partly drawn) , state whether its composite z-score is at least -0.05.
false (0)

Given O=C(NN=C1C[C@@H](O)[C@@H](O)[C@@H]2[C@@H]3C(=O)N(c4cccc(Oc5ccccc5)c4)C(=O)[C@@H]3CC[C@H]12)OCc1ccccc1 , state whether its composite z-score is at least -0.05.
true (1)

Given CC(=O)OC[C@H]1O[C@H](C#CCCCc2ccccc2)C=C[C@@H]1OC(C)=O , state whether its composite z-score is at least -0.05.
true (1)

Given CC(=O)OC[C@H]1O[C@@H](ON=C(C)CCN2CCc3nc(-c4ccccc4)c(-c4ccccc4)cc3C2)[C@H](OC(C)=O)[C@@H](OC(C)=O)[C@@H]1OC(C)=O , state whether its composite z-score is at least -0.05.
true (1)

Given CCN1C(=O)[C@H]2[C@H]3[C@H](O)[C@H](O)CC(=NOC[C@@H](C)[C@H](OCc4ccccc4)C(C)C)[C@@H]3CC[C@H]2C1=O , state whether its composite z-score is at least -0.05.
true (1)

Given CN1C(=O)C2C(C1=O)C1C=C(CCCO)C2C(c2ccc(CN3CCCC3)cc2)N1C (stereo not drawn) , state whether its composite z-score is at least -0.05.
false (0)

Given C=COC[C@H]1CN2[C@@H](CC[C@@H](C)[C@@H]2c2ccc(Br)cc2)C(=O)O1 , state whether its composite z-score is at least -0.05.
true (1)

Given O[C@@H](Cc1ccccc1)[C@H]1C2C=CCCC(c3ccccc3)=C2CN1Cc1cccc(Cl)c1 (stereo partly drawn) , state whether its composite z-score is at least -0.05.
true (1)

Given CO[C@@H]1COC(=O)CCC[C@@H](C)[C@H](OC)COC(=O)[C@H](Cc2ccccc2)NC(=O)CC=C[C@H]1C , state whether its composite z-score is at least -0.05.
false (0)

Given Cn1cccc1C(O)C1C=CC2C(=O)NC(=O)C2N1Nc1ccccn1 (stereo not drawn) , state whether its composite z-score is at least -0.05.
false (0)

Given O=C1C[C@@H](O)[C@@H](O)[C@@H]2[C@@H]3C(=O)N(c4ccc(F)cc4F)C(=O)[C@@H]3CC[C@@H]12 , state whether its composite z-score is at least -0.05.
false (0)

Given O=C(NN=C1C[C@@H](O)[C@@H](O)[C@@H]2[C@@H]3C(=O)N(c4ccc(F)cc4F)C(=O)[C@@H]3CC[C@@H]12)OCc1ccccc1 , state whether its composite z-score is at least -0.05.
true (1)

Given O=C1C2C=CC(C(O)c3ccc([N+](=O)[O-])cc3)N(Nc3ccc([N+](=O)[O-])cc3)C2C(=O)N1c1ccccc1 (stereo not drawn) , state whether its composite z-score is at least -0.05.
true (1)

Given COC(=O)[C@@H]1CC[C@H](C)[C@@H](c2ccc(C)cc2)N1C(=O)c1ccc(C=NOC[C@@H](O)COCc2ccco2)cc1 , state whether its composite z-score is at least -0.05.
false (0)

Given CCOC(=O)[C@H](CC(C)C)NC(=O)CCC1CC(OC(=O)NCc2cccc3ccccc23)CC2(CCCC(COC(=O)NCCN3CCOCC3)O2)O1 (stereo partly drawn) , state whether its composite z-score is at least -0.05.
true (1)

Given CCN1C(=O)[C@H]2[C@H]3[C@H](O)[C@H](O)CC(=NOCC=C(C)CCC=C(C)C)[C@H]3CC[C@H]2C1=O , state whether its composite z-score is at least -0.05.
true (1)

Given CC(CCC(=O)OC[C@H]1O[C@H](C#Cc2ccccc2)C=C[C@@H]1Oc1ccc(C)cc1)=NO[C@@H](C)c1cn([C@H](CO)Cc2ccccc2)nn1 , state whether its composite z-score is at least -0.05.
false (0)

Given CC(C)(C)OC(=O)CC[C@]1(C(N)=O)COC(c2ccc(OCCCO)cc2)=N1 , state whether its composite z-score is at least -0.05.
true (1)

Given COc1ccc(-c2nc3c(c4c2C[C@H](C)OC4)CN(CCC(C)C)CC3)cc1 , state whether its composite z-score is at least -0.05.
true (1)

Given CCc1cc2c(nc1CC)CCN(CCC(C)=NOC[C@@H](O)[C@H]1O[C@@H]3OC(C)(C)O[C@@H]3[C@H]1O)C2 , state whether its composite z-score is at least -0.05.
true (1)

Given CO[C@H]1O[C@H](CO)[C@@H](OC(=O)Nc2ccc(C#N)cc2)[C@H](OC(=O)c2cc3ccccc3[nH]2)[C@H]1OC(=O)c1cc2ccccc2[nH]1 , state whether its composite z-score is at least -0.05.
true (1)

Given CCOC(=O)[C@H](Cc1ccccc1)NC(=O)CCC1CC(OC(=O)NCc2ccc3c(c2)OCO3)CC2(CCCC(COC(=O)NCC(c3ccccc3)c3ccccc3)O2)O1 (stereo partly drawn) , state whether its composite z-score is at least -0.05.
true (1)

Given COCCOC(=O)N1C(=O)[C@@]2(c3cc(C#CCNC(N)=O)ccc31)[C@H](c1ccccc1OCCO)N1[C@H](c3ccccc3)[C@H](c3ccccc3)OC(=O)[C@H]1[C@@H]2C(=O)N1CCN(c2ncccn2)CC1 , state whether its composite z-score is at least -0.05.
true (1)
